- Test system: NRF2 downstream targets, NQO1 and HO-1
- assay_method_text: NQO1 and HO-1 protein levels in HEK293T and HCA7 cell lines
- Format: cell-based
- measurement_context: 48 h
metric_name: NQO1 protein expression

The recorded NQO1 protein expression for Cc1ccc(C(CC(=O)OC(C)(C)C)c2cc(OCCCCCCCNc3cccc4c3C(=O)N(C3CCC(=O)NC3=O)C4=O)c3c(c2)nnn3C)cc1CN1C[C@@H](C)Oc2ccccc2S1(=O)=O (some centres unmarked) is no impact

The recorded NQO1 protein expression for Cc1ccc(C(CC(=O)O)c2cc(OCCCCCCCNc3cccc4c3C(=O)N(C3CCC(=O)N(C)C3=O)C4=O)c3c(c2)nnn3C)cc1CN1C[C@@H](C)Oc2ccccc2S1(=O)=O (some centres unmarked) is upregulated

The recorded NQO1 protein expression for Cc1ccc(C(CC(=O)O)c2cc(OCCCCCCCNc3cccc4c3C(=O)N(C3CCC(=O)NC3=O)C4=O)c3c(c2)nnn3C)cc1CN1C[C@@H](C)Oc2ccccc2S1(=O)=O (some centres unmarked) is upregulated

The recorded NQO1 protein expression for COc1cc(C(CC(=O)OC(C)(C)C)c2ccc(C)c(CN3C[C@@H](C)Oc4ccccc4S3(=O)=O)c2)cc2nnn(C)c12 (some centres unmarked) is no impact

Turning now to a further record.
The recorded NQO1 protein expression for C[S+]([O-])CCCCN=C=S (centres unmarked) [sulforaphane, reference compound] is upregulated
